Where do the numbers come from? From ChEMBL document CHEMBL4425122.

experiment: Plasma clearance in rat at 0.5 mg/kg, iv; format: ADME, organism-based
quantity: clearance (mL/min/kg)
Numbers only, in mL/min/kg.

QUERY: May I ask what clearance has been recorded for `Cc1cc(-c2n[nH]c3cc(NC(=O)N[C@H](C)c4ccccc4)ncc23)ccn1` ?
RESULT: 35

###

system: CHL-1; test: Antiproliferative activity against human CHL-1 cells measured after 96 hrs by Cell Titer-Glo assay; format: functional, cell-based; details: CHL-1, 96 h
quantity: pIC50
One number for each entry, as −log10 of the molar value.

QUERY: Name the recorded pIC50 for `Cc1cc(-c2n[nH]c3cc(NC(=O)N[C@H](C)c4ccccc4)ncc23)ccn1` .
RESULT: 5.89

###

test: Plasma concentration in mouse xenografted with human A375SM cells at 100 mg/kg, po administered qd for 20 days measured after 2 hrs of final dose; format: ADME, organism-based
quantity: concentration at 2 h (µM)
Answers are plain numbers, in µM.

QUERY: Field request: concentration at 2 h | item: `Cc1cc(-c2n[nH]c3cc(NC(=O)N[C@H](C)c4ccccc4)ncc23)ccn1`
RESULT: 20

###

test: Cmax in mouse xenografted with human A375SM cells at 100 mg/kg, po qd measured on day 20; assay type: ADME, organism-based; parameters: dose 100 mg/kg, route oral; conditions: in vivo
quantity: Cmax (µM)
Numbers only, in µM.

QUERY: Reported Cmax, molecule `Cc1cc(-c2n[nH]c3cc(NC(=O)N[C@H](C)c4ccccc4)ncc23)ccn1` : ____
RESULT: 27

###

assay: Volume of distribution at steady state in rat at 0.5 mg/kg, iv; type: ADME, organism-based; conditions: in vivo, read-out: Vdss
quantity: Vd

QUERY: Which Vd value belongs to `Cc1cc(-c2n[nH]c3cc(NC(=O)N[C@H](C)c4ccccc4)ncc23)ccn1` ?
RESULT: 1.7 L/kg

###

assay: Protein binding in rat plasma; format: ADME, cell-free; details: read-out: PPB (converted)
quantity: fraction unbound

QUERY: Name the recorded fraction unbound for `Cc1cc(-c2n[nH]c3cc(NC(=O)N[C@H](C)c4ccccc4)ncc23)ccn1` .
RESULT: 0.012

###

target: Mitogen-activated protein kinase 1 (Homo sapiens, UniProt P28482); assay: Inhibition of human ERK2 preincubated for 15 mins followed by addition of IMAP peptide substrate and ATP measured after 60 mins by IMAP-FP assay
Sequence (P28482 whole entry): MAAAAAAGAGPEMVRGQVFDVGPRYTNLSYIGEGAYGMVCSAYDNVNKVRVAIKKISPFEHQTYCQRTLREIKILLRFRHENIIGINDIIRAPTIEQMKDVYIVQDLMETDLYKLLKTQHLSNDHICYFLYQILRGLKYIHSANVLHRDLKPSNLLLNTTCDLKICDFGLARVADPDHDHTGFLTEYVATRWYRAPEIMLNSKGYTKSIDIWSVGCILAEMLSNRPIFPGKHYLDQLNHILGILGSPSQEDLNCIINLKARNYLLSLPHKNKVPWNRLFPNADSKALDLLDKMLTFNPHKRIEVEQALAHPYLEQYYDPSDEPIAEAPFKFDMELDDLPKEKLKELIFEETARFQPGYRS
Categorized via IC50: low-valued = under 0.8 nM, mid-valued = from 0.8 nM up to 2 nM, high-valued = 2 nM and over

Cc1cc(-c2n[nH]c3cc(Nc4nccs4)ncc23)ccn1 | high-valued
Cc1cc(-c2n[nH]c3cc(Nc4ncc(-c5ccccc5)s4)ncc23)ccn1 | high-valued
COc1cc(-c2n[nH]c3cc(NC(=O)N[C@H](C)c4ccccc4)ncc23)ccn1 | mid-valued
C[C@@H](NC(=O)Nc1cc2[nH]nc(C3CCCC3)c2cn1)c1ccccc1 | high-valued
Cc1cc(-c2n[nH]c3cc(NC(=O)NC4CCc5ccccc54)ncc23)ccn1 (centres undefined) | high-valued

QUERY: In plain terms, what class is `Cc1cc(-c2n[nH]c3cc(NC(=O)NCc4ccccc4)ncc23)ccn1` ?
RESULT: mid-valued

QUERY: Please indicate the class for `Cc1cc(-c2n[nH]c3cc(NC(=O)N[C@H](C)c4ccccc4)ncc23)cc(C)n1` based on its IC50.
RESULT: low-valued

QUERY: Which of the defined bands does the recorded IC50 of `Cc1cc(-c2n[nH]c3cc(NC(=O)N[C@H](C)c4ccccc4)ncc23)ccn1` sit within?
RESULT: low-valued

QUERY: Sort into band: `Cc1cc(-c2n[nH]c3cc(NC(=O)N[C@H](C)c4ccccc4)ncc23)cnn1`
RESULT: mid-valued

QUERY: Field: class (IC50) — entry: `C[C@@H](NC(=O)Nc1cc2[nH]nc(-c3cnn(C)c3)c2cn1)c1ccccc1`
RESULT: low-valued

QUERY: Lab note: sort `C[C@@H](NC(=O)Nc1cc2[nH]nc(-c3ccnc(F)c3)c2cn1)c1ccccc1` into the matching IC50 band.
RESULT: low-valued

QUERY: Tag the class for `Cc1cc(-c2n[nH]c3cc(NS(=O)(=O)NCc4ccccc4)ncc23)ccn1`
RESULT: high-valued

###

assay: Plasma concentration in mouse xenografted with human A375SM cells at 100 mg/kg, po administered qd for 20 days measured after 24 hrs of final dose; type: ADME, organism-based
quantity: concentration at 24 h (nM)
One number for each entry, in nM.

QUERY: Return reported concentration at 24 h; argument: `Cc1cc(-c2n[nH]c3cc(NC(=O)N[C@H](C)c4ccccc4)ncc23)ccn1`
RESULT: 100

###

assay: AUC in mouse xenografted with human A375SM cells at 25 mg/kg, po bid measured on day 20; type: ADME, organism-based; conditions: in vivo
quantity: AUC (µM·h)
Answers are plain numbers, in µM·h.

QUERY: Quick one: AUC for `Cc1cc(-c2n[nH]c3cc(NC(=O)N[C@H](C)c4ccccc4)ncc23)ccn1` ?
RESULT: 95

###

Hi there, I'd appreciate the recorded IC50 for every entry that follows.
biological target: Mitogen-activated protein kinase 1 (Mus musculus, UniProt P63085); test: Inhibition of mouse ERK2 preincubated for 15 mins followed by addition of IMAP peptide substrate and ATP measured after 60 mins by IMAP-FP assay
Sequence (P63085 whole entry): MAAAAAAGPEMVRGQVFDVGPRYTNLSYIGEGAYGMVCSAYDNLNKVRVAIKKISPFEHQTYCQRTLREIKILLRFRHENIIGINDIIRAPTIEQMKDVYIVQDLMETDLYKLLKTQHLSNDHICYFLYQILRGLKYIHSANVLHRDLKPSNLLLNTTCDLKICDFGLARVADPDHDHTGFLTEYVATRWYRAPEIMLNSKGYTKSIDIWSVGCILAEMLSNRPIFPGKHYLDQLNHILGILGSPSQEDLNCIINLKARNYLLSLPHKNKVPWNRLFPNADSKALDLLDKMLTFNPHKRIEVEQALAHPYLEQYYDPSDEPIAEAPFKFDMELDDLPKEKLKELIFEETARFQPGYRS
Answers are plain numbers, in nM.

Cc1cc(-c2n[nH]c3cc(NC(=O)NCc4ccccc4)ncc23)ccn1 | 0.2

--- query ---
QUERY: Look at this compound and give its reported IC50. `Cc1cc(-c2n[nH]c3cc(NC(=O)CCc4ccccc4)ncc23)ccn1`
RESULT: 420

###

assay: Plasma concentration in mouse xenografted with human A375SM cells at 100 mg/kg, po administered qd for 20 days measured after 12 hrs of final dose; type: ADME, organism-based
quantity: concentration at 12 h

QUERY: Given `Cc1cc(-c2n[nH]c3cc(NC(=O)N[C@H](C)c4ccccc4)ncc23)ccn1` , state its recorded concentration at 12 h.
RESULT: 1600 nM

###

experiment: Half life in rat at 0.5 mg/kg, iv; assay type: ADME, organism-based; conditions: in vivo
quantity: half-life (min)
Give bare numbers, in min.

QUERY: Can you look up the measured half-life of `Cc1cc(-c2n[nH]c3cc(NC(=O)N[C@H](C)c4ccccc4)ncc23)ccn1` for me?
RESULT: 42

###

experiment: AUC in mouse xenografted with human A375SM cells at 100 mg/kg, po qd measured on day 20; assay type: ADME, organism-based; conditions: in vivo
quantity: AUC (µM·h)
Answers are plain numbers, in µM·h.

QUERY: Look up AUC: `Cc1cc(-c2n[nH]c3cc(NC(=O)N[C@H](C)c4ccccc4)ncc23)ccn1`
RESULT: 320

###

test: AUC in mouse xenografted with human A375SM cells at 50 mg/kg, po bid measured on day 20; format: ADME, organism-based; details: in vivo
quantity: AUC (µM·h)
Numbers only, in µM·h.

QUERY: Please report the recorded AUC for `Cc1cc(-c2n[nH]c3cc(NC(=O)N[C@H](C)c4ccccc4)ncc23)ccn1` .
RESULT: 240

###

experiment: Plasma concentration in mouse xenografted with human A375SM cells at 100 mg/kg, po administered qd for 20 days measured after 8 hrs of final dose; type: ADME, organism-based
quantity: concentration at 8 h (µM)
Answers are plain numbers, in µM.

QUERY: Entry `Cc1cc(-c2n[nH]c3cc(NC(=O)N[C@H](C)c4ccccc4)ncc23)ccn1` has what concentration at 8 h?
RESULT: 6.7

###

assay: Inhibition of ERK human A375 cells assessed as inhibition of RSK phosphorylation measured after 4 hrs by mesoscale electrochemiluminescent sandwich assay; conditions: A-375, 4 h
Give measured pIC50 for each item. Keep answers brief.
Give bare numbers, as −log10 of the molar value.

Cc1cc(-c2n[nH]c3cc(NC(=O)NCCc4ccccc4)ncc23)ccn1 | 6.96

QUERY: Data request, read-out pIC50, for `Cc1cc(-c2n[nH]c3cc(NC(=O)N[C@@H](C)c4ccccc4)ncc23)ccn1`
RESULT: 5.74
